Recorded values, source patent US20090155164A1.

- EXPERIMENTAL SYSTEM: human c-fms, full length, on cells (human, UniProt P07333 20-972)
- Sequence (P07333 20-972): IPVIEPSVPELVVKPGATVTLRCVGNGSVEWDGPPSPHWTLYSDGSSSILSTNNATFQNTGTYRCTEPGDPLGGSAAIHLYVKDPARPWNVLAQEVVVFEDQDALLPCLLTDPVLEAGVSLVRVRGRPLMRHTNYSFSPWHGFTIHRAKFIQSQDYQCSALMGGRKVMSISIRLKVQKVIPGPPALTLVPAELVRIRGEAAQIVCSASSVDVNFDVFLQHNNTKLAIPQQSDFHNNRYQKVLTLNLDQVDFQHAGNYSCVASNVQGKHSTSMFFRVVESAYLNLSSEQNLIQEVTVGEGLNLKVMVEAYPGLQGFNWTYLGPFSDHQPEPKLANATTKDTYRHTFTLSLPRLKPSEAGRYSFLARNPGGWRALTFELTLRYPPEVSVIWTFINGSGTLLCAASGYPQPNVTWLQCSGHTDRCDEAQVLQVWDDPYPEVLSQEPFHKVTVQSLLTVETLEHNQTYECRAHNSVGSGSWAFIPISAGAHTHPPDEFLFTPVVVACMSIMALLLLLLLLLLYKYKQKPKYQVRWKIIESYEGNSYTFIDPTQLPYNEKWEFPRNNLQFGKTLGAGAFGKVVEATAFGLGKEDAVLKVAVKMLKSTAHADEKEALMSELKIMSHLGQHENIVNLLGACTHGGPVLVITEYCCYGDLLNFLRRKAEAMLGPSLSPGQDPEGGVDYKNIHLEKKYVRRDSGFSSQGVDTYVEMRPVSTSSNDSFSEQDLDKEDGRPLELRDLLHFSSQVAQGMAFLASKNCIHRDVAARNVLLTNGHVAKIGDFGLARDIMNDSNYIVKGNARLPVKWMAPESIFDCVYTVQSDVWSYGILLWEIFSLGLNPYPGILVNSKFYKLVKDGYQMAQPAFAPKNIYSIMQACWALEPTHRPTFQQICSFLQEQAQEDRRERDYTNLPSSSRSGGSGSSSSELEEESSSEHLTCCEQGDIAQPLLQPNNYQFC
- PROTOCOL NOTES: cell-based or functional assay
PROPERTY NAME: AML-5 bioassay IC50 (nM)
Field format: number, assumed nM, no unit text.

{"BINDER": "anti-c-fms hybridoma antibody 2.360 (antibody, IgG2, V domains shown, Hybridoma IgG2 (cohort 2)) VH: QVQLVQSGAEVKKPGASVKVSCKVSGYTLTELSMHWVRQAPGKGLEWMGGFDPEDGETIYAQKFQGRVTMTEDTSTDTVYMELSSLRSEDTAVYYCATGVMITFGGVIVGHSYYGMDVWGQGTTVTVSS VL: DIQMTQSPSSLSASVGDRVTITCRASQGINNYLAWYQQKPGKVPQLLIYVASTLQSGVPSRFSGSGSGTDFTLTISSLQPEDVATYYCQKYNSGPFTFGPGTKVDIK", "OBSERVED VALUE": 0.027}
{"BINDER": "anti-c-fms hybridoma antibody 2.475 (antibody, IgG2, V domains shown, Hybridoma IgG2 (cohort 2); also called 2.475.2) VH: QVQLVESGGGVVQPGRSLRLSCAASGFTFISYGMHWVRQAPGKGLEWVAVIWYDGSNKYYADSVKGRFTISRDNSKNTLYLQMNSLRAEDTAVYYCADSSGDYYGMDVWGQGTTVTVSS VL: DIQMIQSPSSLSASVGDRVTITCQASHDISNYLNWYQQKPGKAPKFLISDASNLETGVPSRFSGSGSGTDFTFTISSLQPEDIATYYCQQYDNLPLTFGGGTKVEIK", "OBSERVED VALUE": 0.04}

We next turn to a different binder, shown below.
// returns reported AML-5 bioassay IC50 for input anti-c-fms hybridoma antibody 1.64 (antibody, IgG1, V domains shown, Hybridoma IgG1 (cohort 1); also called 1.64.1; 1.64.2) VH: EVQLVESGGGLVQPGGSLRLSCAASGFTFSSYDMHWVRQATGKGLEWVSGIGTAGDTYYPGSVKGRFNISRENAKNSLYLQMNSLRAGDTAVYYCAREGSWYGFDYWGQGTLVTVSS VL: EIVLTQSPGTLSLSPGERATLSCRASQSVSSGYLAYLAWYQQKPGQAPRLLIYGASSTATGIPDRFSGSGSGTDFTLTISRLEPEDFAVYYCQQYGSSPITFGQGTRLEIK
0.004
